# Measurement Target: Muscarinic acetylcholine receptor M4 (Homo sapiens)
# Sequence (P08173 whole entry): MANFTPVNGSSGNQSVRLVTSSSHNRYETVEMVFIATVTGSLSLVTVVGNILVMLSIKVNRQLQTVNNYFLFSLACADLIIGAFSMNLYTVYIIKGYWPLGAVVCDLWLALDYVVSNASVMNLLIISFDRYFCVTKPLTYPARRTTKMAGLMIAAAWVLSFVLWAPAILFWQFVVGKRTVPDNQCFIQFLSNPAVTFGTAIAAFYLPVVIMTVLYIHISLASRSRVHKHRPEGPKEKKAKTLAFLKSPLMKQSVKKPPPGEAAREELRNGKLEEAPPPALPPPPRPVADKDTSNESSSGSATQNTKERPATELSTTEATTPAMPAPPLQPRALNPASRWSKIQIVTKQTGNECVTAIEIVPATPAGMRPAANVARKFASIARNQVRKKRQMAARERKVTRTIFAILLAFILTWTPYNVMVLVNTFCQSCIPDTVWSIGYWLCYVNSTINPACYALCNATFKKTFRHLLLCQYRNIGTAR
# Protocol Summary: Displacement of [3H]NMS from human recombinant muscarinic receptor M4 expressed in CHO-K9 cell membranes measured after 3 hrs by radioligand competition binding assay
# Design: species or system Membrane
Assay Readout: Ki
Hey, just the number and the unit after it is fine.

CN(C)c1ccc2c(-c3ccc(C(=O)NCCN4CCN(CCCCC5CCN(CC(=O)N6c7ccccc7NC(=O)c7ccccc76)CC5)CC4)cc3C(=O)[O-])c3ccc(=[N+](C)C)cc-3oc2c1 | 977 pM
O=C(CCCCCNC(=O)COc1ccc(/C=C/C2=[N+]3C(=Cc4ccc(-c5cccs5)n4[B-]3(F)F)C=C2)cc1)NCCNC(=O)CCc1cn(CCCCC2CCN(CC(=O)N3c4ccccc4NC(=O)c4ccccc43)CC2)cn1 | 417 pM

In plain terms, Cc1cc(/C=C/C=C/c2ccc(N(C)C)cc2)cc(C)[n+]1CCNC(=O)CCc1cn(CCCCC2CCN(CC(=O)N3c4ccccc4NC(=O)c4ccccc43)CC2)cn1 has a documented Ki of 4270 pM

----------
Items are presented alongside their recorded pKi.
# Measurement Target: Muscarinic acetylcholine receptor M3 (Homo sapiens)
# Sequence (P20309 whole entry): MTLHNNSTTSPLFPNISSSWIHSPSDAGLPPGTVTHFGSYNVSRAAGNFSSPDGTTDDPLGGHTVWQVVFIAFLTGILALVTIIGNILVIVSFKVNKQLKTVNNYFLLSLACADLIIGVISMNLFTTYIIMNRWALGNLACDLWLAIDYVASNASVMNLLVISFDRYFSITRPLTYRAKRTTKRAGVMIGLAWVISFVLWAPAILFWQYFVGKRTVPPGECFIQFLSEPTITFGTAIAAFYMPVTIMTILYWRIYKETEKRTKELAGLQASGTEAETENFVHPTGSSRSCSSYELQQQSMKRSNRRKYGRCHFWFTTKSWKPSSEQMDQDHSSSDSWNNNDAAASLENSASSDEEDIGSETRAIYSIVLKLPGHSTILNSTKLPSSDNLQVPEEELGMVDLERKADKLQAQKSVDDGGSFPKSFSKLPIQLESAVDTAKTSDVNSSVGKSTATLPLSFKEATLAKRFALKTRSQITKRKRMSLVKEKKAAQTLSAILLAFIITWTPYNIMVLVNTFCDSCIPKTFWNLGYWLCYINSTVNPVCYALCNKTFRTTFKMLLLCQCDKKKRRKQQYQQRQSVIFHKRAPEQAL
# Protocol Summary: Displacement of [3H]NMS from human recombinant muscarinic receptor M3 expressed in CHO-K9 cell membranes measured after 3 hrs by radioligand competition binding assay
pKi is defined as minus the log10 of a concentration measured in mol/L.

CN(C)c1ccc2c(-c3ccc(C(=O)NCCN4CCN(CCCCC5CCN(CC(=O)N6c7ccccc7NC(=O)c7ccccc76)CC5)CC4)cc3C(=O)[O-])c3ccc(=[N+](C)C)cc-3oc2c1 | 7.09

Record Cc1cc(/C=C/C=C/c2ccc(N(C)C)cc2)cc(C)[n+]1CCNC(=O)CCc1cn(CCCCC2CCN(CC(=O)N3c4ccccc4NC(=O)c4ccccc43)CC2)cn1 ; system Muscarinic acetylcholine receptor M3 (Homo sapiens); pKi = 7.07

The compound Cc1cc(/C=C/c2cc3c4c(c2)CCCN4CCC3)cc(C)[n+]1CCNC(=O)CCc1cn(CCCCC2CCN(CC(=O)N3c4ccccc4NC(=O)c4ccccc43)CC2)cn1 , when measured on Muscarinic acetylcholine receptor M3 (Homo sapiens), yielded pKi of 7.16

Form field, pKi with Muscarinic acetylcholine receptor M3 (Homo sapiens), item Cc1cc(/C=C/c2cc3c4c(c2)CCCN4CCC3)cc(C)[n+]1CCN1CCN(CCCCC2CCN(CC(=O)N3c4ccccc4NC(=O)c4ccccc43)CC2)CC1 : 7.20

Reported Muscarinic acetylcholine receptor M3 (Homo sapiens) pKi for item O=C(CCCCCNC(=O)COc1ccc(/C=C/C2=[N+]3C(=Cc4ccc(-c5cccs5)n4[B-]3(F)F)C=C2)cc1)NCCNC(=O)CCc1cn(CCCCC2CCN(CC(=O)N3c4ccccc4NC(=O)c4ccccc43)CC2)cn1 was 7.43

// compound CN(C)c1ccc2c(-c3ccc(C(=O)NCCNC(=O)CCc4cn(CCCCC5CCN(CC(=O)N6c7ccccc7NC(=O)c7ccccc76)CC5)cn4)cc3C(=O)[O-])c3ccc(=[N+](C)C)cc-3oc2c1 , assay Muscarinic acetylcholine receptor M3 (Homo sapiens), pKi value: 6.89
